// reported phosphorylation enrichment per item
# Tested on: c-Src
# procedureDetails: phosphorylation enrichment, bacterial display (enrichment ratio); higher = better substrate or ligand; peptides without Tyr show the background;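 further: 11-residue human phosphosite peptides and single-mutation variants displayed on the E. coli surface, counted by deep sequencing, each peptide's frequency after selection divided by its frequency in the unselected input library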;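 further: frequency after pTyr selection over input frequency; kinase dosed for 20-30% of maximal phosphorylation in three min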
Answer with the value's number alone.

The following sequences have reported results that may help.
DFLSSYSAVNQ [OAT_Y85] | 0.61
EPFKVYRIVPE [IRF8_Y110_YF] | 0.588

Consider the additional sequence presented here.
Would you kindly share the measured phosphorylation enrichment for EKLQKYFRKNP [EHHADH_Y682_Q685K_YF] ?
0.613

###

# targetOfAssay: EPHB2 (UniProt P29323)
# Sequence (P29323 whole entry, looked up): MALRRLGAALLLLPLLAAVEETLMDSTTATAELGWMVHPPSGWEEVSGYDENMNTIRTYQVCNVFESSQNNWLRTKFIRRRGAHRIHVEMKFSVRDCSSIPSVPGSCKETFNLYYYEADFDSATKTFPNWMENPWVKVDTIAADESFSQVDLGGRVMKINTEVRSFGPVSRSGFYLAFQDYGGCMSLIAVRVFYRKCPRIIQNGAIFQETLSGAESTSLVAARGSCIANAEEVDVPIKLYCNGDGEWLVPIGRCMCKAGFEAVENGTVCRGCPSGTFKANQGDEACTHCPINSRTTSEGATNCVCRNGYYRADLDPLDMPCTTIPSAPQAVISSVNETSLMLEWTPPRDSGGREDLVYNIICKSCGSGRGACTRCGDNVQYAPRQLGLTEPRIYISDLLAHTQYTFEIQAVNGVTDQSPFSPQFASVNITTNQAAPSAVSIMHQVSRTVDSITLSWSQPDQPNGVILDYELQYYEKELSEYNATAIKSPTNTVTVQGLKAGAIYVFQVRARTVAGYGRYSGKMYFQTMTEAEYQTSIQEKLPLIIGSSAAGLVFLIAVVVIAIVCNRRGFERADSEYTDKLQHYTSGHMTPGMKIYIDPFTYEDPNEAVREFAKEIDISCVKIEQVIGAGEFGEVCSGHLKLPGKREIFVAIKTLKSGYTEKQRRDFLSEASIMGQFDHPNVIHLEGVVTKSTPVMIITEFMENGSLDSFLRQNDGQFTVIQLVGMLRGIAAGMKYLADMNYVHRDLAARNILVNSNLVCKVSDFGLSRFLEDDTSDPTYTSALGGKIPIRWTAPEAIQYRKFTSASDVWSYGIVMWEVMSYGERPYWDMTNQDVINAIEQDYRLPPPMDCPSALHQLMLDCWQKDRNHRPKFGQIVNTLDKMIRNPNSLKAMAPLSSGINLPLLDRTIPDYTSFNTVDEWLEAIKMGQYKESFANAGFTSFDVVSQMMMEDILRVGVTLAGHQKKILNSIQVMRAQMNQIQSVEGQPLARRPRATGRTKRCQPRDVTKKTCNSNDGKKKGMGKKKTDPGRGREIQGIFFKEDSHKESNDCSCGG
# procedureDetails: phosphorylation enrichment, bacterial display (enrichment ratio); higher = better substrate or ligand; peptides without Tyr show the background
readoutLabel: phosphorylation enrichment
# respond with the number and nothing more

Study these solved cases before continuing.
IGMSSYVMLAS [GGCX_Y301_F299S] | 0.655
IKEFKYGIEEH [GJA1_Y137_K134E] | 0.464

Give phosphorylation enrichment (EPHB2 (UniProt P29323)) of the following sequence: ENAGYYFRISA
0.781

// map ERQIRYLNHQL [CEP152_Y268] to recorded phosphorylation enrichment (system: EPHB2 (UniProt P29323))
0.354

Return phosphorylation enrichment measured with EPHB2 (UniProt P29323) given this sequence: PDGREYIFVDP [PDGFRA_Y572_H570R_YF]
0.532
